Data provenance is the supplement of paper PMC10567573.

Recorded measurements of protein stability index, one per entry
B1: BTBD1 (parent)
chain: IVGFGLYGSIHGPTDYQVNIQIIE

Variants of: B1
Assay: protein stability index of a GFP-peptide fusion (GPS, HEK-293T) (PSI 1-6); higher = more stable;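 also: lentivirally expressed fusions sorted by FACS into six bins by GFP to DsRed ratio, PSI derived from sequencing read proportions per bin multiplied by bin number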
Settings: c terminus: a fixed tail appended
Hey, just send me the number, nothing else.

Here is how some variants turned out for protein stability index.
mutation_spec=V18F quantity_measured="protein stability index" numeric_readout=2.14
mutation_spec=L6F quantity_measured="protein stability index" numeric_readout=4.24
mutation_spec=P13F quantity_measured="protein stability index" numeric_readout=2.72
mutation_spec=Y16E quantity_measured="protein stability index" numeric_readout=2.15
mutation_spec=E24P quantity_measured="protein stability index" numeric_readout=2.89

Identify protein stability index associated with the variant "I22W"
3.36
